biological target: human Glucose-dependent Insulinotropic Polypeptide Receptor (hGIPR) (Homo sapiens, UniProt P48546); assay: Functional in vitro GIPR antagonist potency assay (cAMP HTRF, CHO-K1 cells stably expressing hGIPR, hGIP stimulation at about EC80); details: geometric mean, hGIP at estimated EC80, examples marked ^2: overall geometric mean of multiple forms (including salts) tested
Sequence (P48546 22-466): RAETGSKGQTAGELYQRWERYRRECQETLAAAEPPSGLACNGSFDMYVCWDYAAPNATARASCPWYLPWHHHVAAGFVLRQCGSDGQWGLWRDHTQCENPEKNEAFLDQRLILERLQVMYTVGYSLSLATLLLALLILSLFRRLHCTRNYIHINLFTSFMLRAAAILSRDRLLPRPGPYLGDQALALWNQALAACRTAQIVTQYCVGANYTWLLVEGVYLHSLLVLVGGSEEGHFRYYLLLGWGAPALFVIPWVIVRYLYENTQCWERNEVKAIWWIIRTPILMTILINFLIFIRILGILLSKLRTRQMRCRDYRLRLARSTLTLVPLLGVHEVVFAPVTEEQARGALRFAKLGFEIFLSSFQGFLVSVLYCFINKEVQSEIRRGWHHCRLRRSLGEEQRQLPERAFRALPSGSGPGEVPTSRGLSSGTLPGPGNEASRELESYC
MEASUREMENT_NAME: pIC50
pIC50 field: float, defined as -log10 of concentration (mol/L).

Observe how each entry below is paired with its result.
# STRUCTURE_STRING, pIC50
measured = [
    ("CC(C)c1ccc(NC(=O)N2CCC[C@@H]2C(=O)Nc2ccc(-c3ccc(C(=O)O)cc3)nc2)cc1F", 7.85),
    ("CC(C)c1ccc(NC(=O)N2CCC[C@@H]2C(=O)Nc2ccc(-c3ccc(O)cc3F)cc2)cc1", 6.55),
    ("CC(C)c1ncc(NC(=O)N2CCC[C@@H]2C(=O)Nc2ccc(-c3ccc(C(=O)O)cc3)cc2)cn1", 6.08),
]

Quick note, pIC50 for COc1cc(C(F)(F)F)ccc1NC(=O)N1CCC[C@@H]1C(=O)Nc1ccc(-c2ccc(C(=O)O)cc2)cc1 landed at 6.85
